Target: T1, human GLP-1 receptor (human, UniProt P43220 24-463)
T1 construct: whole, on cells
Test: competitive SPA binding, displacement of 125I-GLP-1(7-36)NH2 from BHK membranes with human GLP-1R, low HSA (max. 0.001%)
Numbered stars: 1 amine (or outer) side, 2 acyl side, 3 side chain; on linkers, the order of the positions; unused ones are H or OH. Square brackets hold non-standard residues; d marks the D form. Side chains are listed from the residue outwards. Ends that are not written are not given here. * marks the point of attachment. Hexadecanoyl(16-SO3H) = O=C(CCCCCCCCCCCCCCCS(=O)(=O)O)*; C20 diacid = O=C(O)CCCCCCCCCCCCCCCCCCC(=O)*; C18 diacid = O=C(O)CCCCCCCCCCCCCCCCC(=O)*; γGlu = O=C(O)[C@H](CCC(=O)[*:2])N[*:1]; εLys = N[C@@H](CCCCN[*:1])C(=O)[*:2]; Cya = N[C@@H](CS(=O)(=O)O)C(=O)O; Trx = NC[C@H]1CC[C@H](C(=O)O)CC1; AEEA = NCCOCCOCC(=O)O; Aib = CC(C)(N)C(=O)O; Ahx = NCCCCCC(=O)O; GABA = NCCCC(=O)O
measured.metric: log10 IC50 (log10 of the value in nM)

{"columns": ["binder", "log10 IC50"],
 "data": [
  ["H[Aib]EGTFTSDVSK([AEEA-AEEA-εLys-εLys-Hexadecanoyl(16-SO3H)])YLEK([AEEA-AEEA-εLys-εLys-Hexadecanoyl(16-SO3H)])QAAREFIK([AEEA-AEEA-εLys-εLys-Hexadecanoyl(16-SO3H)])WLVRGRG (Full chemical name printed at h-0078)", -0.72],
  ["H[Aib]EGTFTSDVSK([AEEA-γGlu-AEEA-C18 diacid])YLEEQAARK([AEEA-γGlu-AEEA-C18 diacid])FIAWLVRGRK([AEEA-γGlu-AEEA-C18 diacid]) (Full chemical name printed at h-0064)", -0.15],
  ["H[Aib]EGTFTSDVSK([AEEA-AEEA-γGlu-Trx-Hexadecanoyl(16-SO3H)])YLEK([AEEA-AEEA-γGlu-Trx-Hexadecanoyl(16-SO3H)])QAAREFIK([AEEA-AEEA-γGlu-Trx-Hexadecanoyl(16-SO3H)])WLVRGRG (Full chemical name printed at h-0052)", 0.36],
  ["H[Aib]EGTFTSDVSSYLEEQAAK([εLys-AEEA-AEEA-γGlu-C18 diacid])EFIK([εLys-AEEA-AEEA-γGlu-C18 diacid])WLVRGRK([εLys-AEEA-AEEA-γGlu-C18 diacid]) (Full chemical name printed at h-0072)", 0.94],
  ["H[Aib]EGTFTSDVSK([AEEA-AEEA-AEEA-AEEA-εLys-εLys-GABA-Hexadecanoyl(16-SO3H)])YLEK([AEEA-AEEA-AEEA-AEEA-εLys-εLys-GABA-Hexadecanoyl(16-SO3H)])QAAREFIK([AEEA-AEEA-AEEA-AEEA-εLys-εLys-GABA-Hexadecanoyl(16-SO3H)])WLVRGRG (Full chemical name printed at h-0086)", -1.00],
  ["H[Aib]EGTFTSDVSK([εLys-AEEA-AEEA-γGlu-C18 diacid])YLEEQAARK([εLys-AEEA-AEEA-γGlu-C18 diacid])FIAWLVRGRK([εLys-AEEA-AEEA-γGlu-C18 diacid]) (Full chemical name printed at h-0062 (it prints 'Lys8' where Lys18 is meant))", -0.40],
  ["H[Aib]EGTFTSDVSSYLEEQAAK([εLys-AEEA-AEEA-Cya-Hexadecanoyl(16-SO3H)])EFIK([εLys-AEEA-AEEA-Cya-Hexadecanoyl(16-SO3H)])WLVRGRK([εLys-AEEA-AEEA-Cya-Hexadecanoyl(16-SO3H)]) (Full chemical name printed at h-0074)", 0.70],
  ["H[Aib]EGTFTSDVSSYLEEQAARK([AEEA-AEEA-γGlu-C18 diacid])FIK([AEEA-AEEA-γGlu-C18 diacid])WLVRGRK([AEEA-AEEA-γGlu-C18 diacid]) (Full chemical name printed at h-0070)", -0.09],
  ["H[Aib]EGTFTSDVSK([AEEA-AEEA-Cya-Hexadecanoyl(16-SO3H)])YLEK([AEEA-AEEA-Cya-Hexadecanoyl(16-SO3H)])QAAREFIK([AEEA-AEEA-Cya-Hexadecanoyl(16-SO3H)])WLVRGRG (Full chemical name printed at h-0054)", 0.15],
  ["H[Aib]EGTFTSDVSK([AEEA-AEEA-AEEA-AEEA-AEEA-εLys-εLys-GABA-Hexadecanoyl(16-SO3H)])YLEK([AEEA-AEEA-AEEA-AEEA-AEEA-εLys-εLys-GABA-Hexadecanoyl(16-SO3H)])QAAREFIK([AEEA-AEEA-AEEA-AEEA-AEEA-εLys-εLys-GABA-Hexadecanoyl(16-SO3H)])WLVRGRG (Full chemical name printed at h-0092)", -0.62],
  ["H[Aib]EGTFTSDVSK([AEEA-AEEA-γGlu-C18 diacid])YLEEQAARK([AEEA-AEEA-γGlu-C18 diacid])FIAWLVRGRK([AEEA-AEEA-γGlu-C18 diacid]) (Full chemical name printed at h-0060)", -0.22],
  ["H[Aib]EGTFTSDVSK([AEEA-AEEA-AEEA-AEEA-AEEA-εLys-εLys-C18 diacid])YLEK([AEEA-AEEA-AEEA-AEEA-AEEA-εLys-εLys-C18 diacid])QAAREFIK([AEEA-AEEA-AEEA-AEEA-AEEA-εLys-εLys-C18 diacid])WLVRGRG (Full chemical name printed at h-0082)", -0.40],
  ["H[Aib]EGTFTSDVSK([AEEA-AEEA-AEEA-AEEA-AEEA-εLys-εLys-C20 diacid])YLEK([AEEA-AEEA-AEEA-AEEA-AEEA-εLys-εLys-C20 diacid])QAAREFIK([AEEA-AEEA-AEEA-AEEA-AEEA-εLys-εLys-C20 diacid])WLVRGRG (Full chemical name printed at h-0080)", 1.04],
  ["H[Aib]EGTFTSDVSK([AEEA-AEEA-AEEA-AEEA-AEEA-εLys-εLys-Ahx-Hexadecanoyl(16-SO3H)])YLEK([AEEA-AEEA-AEEA-AEEA-AEEA-εLys-εLys-Ahx-Hexadecanoyl(16-SO3H)])QAAREFIK([AEEA-AEEA-AEEA-AEEA-AEEA-εLys-εLys-Ahx-Hexadecanoyl(16-SO3H)])WLVRGRG (Full chemical name printed at h-0090)", -0.44]
]}

Provenance of the data: patent US20160200791A1
